- Target: Extracellular calcium-sensing receptor (Homo sapiens) (UniProt P41180)
- Sequence (P41180 whole entry): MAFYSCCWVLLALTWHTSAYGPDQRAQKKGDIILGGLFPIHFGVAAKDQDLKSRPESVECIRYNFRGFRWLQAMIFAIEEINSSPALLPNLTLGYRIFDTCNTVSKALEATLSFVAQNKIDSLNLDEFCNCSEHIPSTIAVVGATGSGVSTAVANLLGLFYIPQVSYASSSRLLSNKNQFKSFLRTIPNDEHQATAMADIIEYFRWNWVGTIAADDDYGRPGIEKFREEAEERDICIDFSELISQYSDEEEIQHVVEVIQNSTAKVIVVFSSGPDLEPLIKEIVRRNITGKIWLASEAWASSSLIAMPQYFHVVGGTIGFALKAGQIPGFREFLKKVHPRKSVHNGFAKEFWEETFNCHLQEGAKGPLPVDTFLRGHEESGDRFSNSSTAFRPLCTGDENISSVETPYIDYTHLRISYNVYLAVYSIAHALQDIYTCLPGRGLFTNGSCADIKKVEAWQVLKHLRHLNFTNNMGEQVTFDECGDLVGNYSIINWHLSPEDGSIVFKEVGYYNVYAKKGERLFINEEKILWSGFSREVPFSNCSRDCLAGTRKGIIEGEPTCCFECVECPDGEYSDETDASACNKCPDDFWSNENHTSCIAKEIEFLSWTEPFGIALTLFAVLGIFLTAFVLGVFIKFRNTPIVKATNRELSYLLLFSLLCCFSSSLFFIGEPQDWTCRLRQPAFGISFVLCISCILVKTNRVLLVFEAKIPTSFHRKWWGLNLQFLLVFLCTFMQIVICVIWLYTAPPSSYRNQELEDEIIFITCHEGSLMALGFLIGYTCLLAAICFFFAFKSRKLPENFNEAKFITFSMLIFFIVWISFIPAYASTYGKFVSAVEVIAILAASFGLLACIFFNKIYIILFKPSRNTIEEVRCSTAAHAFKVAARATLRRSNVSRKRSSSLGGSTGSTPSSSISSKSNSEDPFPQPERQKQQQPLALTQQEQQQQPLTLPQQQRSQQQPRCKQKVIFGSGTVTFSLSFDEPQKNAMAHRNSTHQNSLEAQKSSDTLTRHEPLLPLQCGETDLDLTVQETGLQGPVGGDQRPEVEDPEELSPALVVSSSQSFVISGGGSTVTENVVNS
- Assay: Agonist activity at human CaSR expressed in HEK293 cells assessed as increase of calcium-induced inositol phosphate accumulation at 10 uM after 48 hrs by HTRF assay relative to calcium
- Type: functional, cell-based
Reported values of Activity for individual entries
Endpoint label: Activity (%)

1) C[C@@H](NCC1Cc2ccccc2OS(=O)(=O)N1)c1cccc2ccccc12 (single isomer, unassigned; diastereomer 2) :: 65
2) C[C@@H](NCC1NS(=O)(=O)c2ccccc21)c1cccc2ccccc12 (single isomer, unassigned; diastereomer 2) :: 51
3) C[C@@H](NCC1Cc2ccccc2OS(=O)(=O)N1)c1cccc2ccccc12 (single isomer, unassigned; diastereomer 1) :: 75
4) C[C@@H](NC1CNS(=O)(=O)Oc2ccccc2C1)c1cccc2ccccc12 (single isomer, unassigned; diastereomer 2) :: 2

----------
- Target: Extracellular calcium-sensing receptor (Homo sapiens) (UniProt P41180)
- Assay: Agonist activity at human CaSR expressed in HEK293 cells assessed as increase of calcium-induced inositol phosphate accumulation at 10 uM after 48 hrs by HTRF assay relative to calcium
- Type: functional, cell-based
Quick rule for you: Activity under 70% gets t, anything else gets f.

1. C[C@@H](NCC1CCc2ccccc2S(=O)(=O)N1)c1cccc2ccccc12 (single isomer, unassigned; diastereomer 2) :: t
2. C[C@@H](NCC1NS(=O)(=O)c2ccccc21)c1cccc2ccccc12 (single isomer, unassigned; diastereomer 1) :: t
3. C[C@@H](NCC1Cc2ccccc2S(=O)(=O)N1)c1cccc2ccccc12 (single isomer, unassigned; diastereomer 1) :: f
4. C[C@@H](NCc1cc2ccccc2[nH]1)c1cccc2ccccc12 :: f
5. C[C@@H](NCC1Cc2ccccc2S(=O)(=O)N1)c1cccc2ccccc12 (single isomer, unassigned; diastereomer 2) :: t
6. C[C@@H](NC1CNS(=O)(=O)Oc2ccccc2C1)c1cccc2ccccc12 (single isomer, unassigned; diastereomer 1) :: t

----------
- Test system: Extracellular calcium-sensing receptor (Homo sapiens), P41180 [E837A]
- Sequence (P41180 whole entry E837A/E1011Q): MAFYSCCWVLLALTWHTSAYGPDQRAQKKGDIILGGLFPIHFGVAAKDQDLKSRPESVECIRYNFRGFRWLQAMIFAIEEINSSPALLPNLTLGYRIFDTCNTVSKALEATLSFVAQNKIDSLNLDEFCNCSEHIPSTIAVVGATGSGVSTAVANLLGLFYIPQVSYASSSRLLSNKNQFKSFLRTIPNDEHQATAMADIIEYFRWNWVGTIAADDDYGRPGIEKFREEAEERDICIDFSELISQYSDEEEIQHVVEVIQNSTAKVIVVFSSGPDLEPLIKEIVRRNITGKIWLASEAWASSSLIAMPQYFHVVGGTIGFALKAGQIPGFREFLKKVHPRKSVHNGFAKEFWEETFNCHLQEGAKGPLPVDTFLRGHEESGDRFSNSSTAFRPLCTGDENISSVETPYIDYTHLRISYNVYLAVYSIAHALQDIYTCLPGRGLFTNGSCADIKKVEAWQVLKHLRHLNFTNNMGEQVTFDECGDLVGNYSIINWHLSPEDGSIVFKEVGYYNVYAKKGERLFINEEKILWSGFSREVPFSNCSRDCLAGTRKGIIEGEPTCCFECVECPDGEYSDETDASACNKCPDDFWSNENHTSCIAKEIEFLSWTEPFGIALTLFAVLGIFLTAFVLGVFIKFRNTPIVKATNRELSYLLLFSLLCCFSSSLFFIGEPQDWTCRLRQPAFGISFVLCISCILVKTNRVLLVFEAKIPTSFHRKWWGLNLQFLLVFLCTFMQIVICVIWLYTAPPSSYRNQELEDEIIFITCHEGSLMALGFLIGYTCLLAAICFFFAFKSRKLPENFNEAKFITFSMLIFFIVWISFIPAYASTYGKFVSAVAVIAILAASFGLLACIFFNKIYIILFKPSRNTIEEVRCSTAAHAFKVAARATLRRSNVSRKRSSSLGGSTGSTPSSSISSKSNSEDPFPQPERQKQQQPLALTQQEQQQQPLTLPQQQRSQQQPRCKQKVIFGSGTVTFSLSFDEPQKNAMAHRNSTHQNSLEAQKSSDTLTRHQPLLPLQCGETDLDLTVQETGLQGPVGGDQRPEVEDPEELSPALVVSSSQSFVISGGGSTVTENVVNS
- Assay: Agonist activity at human CaSR E837A mutant expressed in HEK293 cells assessed as increase of calcium-induced inositol phosphate accumulation at 10 uM after 48 hrs by HTRF assay relative to calcium
- Type: functional, cell-based
Reported values of Activity for individual entries
Endpoint label: Activity (%)

1. C[C@@H](NC1CNS(=O)(=O)Oc2ccccc2C1)c1cccc2ccccc12 (single isomer, unassigned; diastereomer 2) :: 1
2. C[C@@H](NCC1CCc2ccccc2S(=O)(=O)N1)c1cccc2ccccc12 (single isomer, unassigned; diastereomer 1) :: 3
3. C[C@@H](NCC1Cc2ccccc2OS(=O)(=O)N1)c1cccc2ccccc12 (single isomer, unassigned; diastereomer 1) :: 51
4. C[C@@H](NCC1NS(=O)(=O)c2ccccc21)c1cccc2ccccc12 (single isomer, unassigned; diastereomer 2) :: 11
5. C[C@@H](NCC1Cc2ccccc2OS(=O)(=O)N1)c1cccc2ccccc12 (single isomer, unassigned; diastereomer 2) :: 27
6. C[C@@H](NCC1Cc2ccccc2S(=O)(=O)N1)c1cccc2ccccc12 (single isomer, unassigned; diastereomer 1) :: 22
7. C[C@@H](NCC1Cc2ccccc2S(=O)(=O)N1)c1cccc2ccccc12 (single isomer, unassigned; diastereomer 2) :: 10
8. C[C@@H](NC1CNS(=O)(=O)Oc2ccccc2C1)c1cccc2ccccc12 (single isomer, unassigned; diastereomer 1) :: 1
9. C[C@@H](NCc1cc2ccccc2[nH]1)c1cccc2ccccc12 :: 41
10. C[C@@H](NCC1NS(=O)(=O)c2ccccc21)c1cccc2ccccc12 (single isomer, unassigned; diastereomer 1) :: 11
11. C[C@@H](NCC1CCc2ccccc2S(=O)(=O)N1)c1cccc2ccccc12 (single isomer, unassigned; diastereomer 2) :: 1
